# assay.procedure: protein stability index of a GFP-peptide fusion (yeast GPS) (PSI 1-4); higher = more stable; sorted into four equal gates, so the index is relative within each strain
# experimental.context: ubr1∆
# protein stability index >= 3 gives t, anything below gives f

Worked examples follow.
EALQYDPQPFLKHVLQL [SNU114]; f
ASTINGASIIQVIFEIF [YML103C/NUP188]; f
DYMYENGKLTSANERLF [YML031W/NDC1]; t
IDLLTFQYGSRLPTFLK [RPP1]; f
LSQLCAVPLQIVSPQSN [RPO21]; f

Assess whether reported protein stability index for ALPNIENDIIKLSDSKT [BRR2] sits at 3 or higher.
t

Is the recorded value of protein stability index equal to or greater than 3 for this sequence? LKLCVQELEKRMPMDFK [PRE1]
t

Could you tell me if the measured protein stability index of LRLLLLLIEFPYLPKHY [YJR042W/NUP85] reaches 3 or more?
f

Hello, I need to know if SDDQQEAVELVIGLDSE [YML103C/NUP188] has measured protein stability index not below 3. Thanks!
t

Quick check, protein stability index >= 3? QLYKRDPVSGAILVPMT [YJR042W/NUP85]
f
